B1: TTC32 (parent)
chain: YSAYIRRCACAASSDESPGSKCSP

Variants of: B1
experimentDescription: protein stability index of a GFP-peptide fusion (GPS, HEK-293T) (PSI 1-6); higher = more stable;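 note: lentivirally expressed fusions sorted by FACS into six bins by GFP to DsRed ratio, PSI derived from sequencing read proportions per bin multiplied by bin number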
studyConditions: c terminus: a fixed tail appended
// reported protein stability index for each item listed
endpointName: protein stability index

itemSequence: YSRYIRRCACAASSDESPGSKCSP [A3R]
endpointName: protein stability index
observedMeasurement: 1.89
//
itemSequence: YSPYIRRCACAASSDESPGSKCSP [A3P]
endpointName: protein stability index
observedMeasurement: 1.69
//
itemSequence: YSAYIRRCACAACSDESPGSKCSP [S13C]
endpointName: protein stability index
observedMeasurement: 2.96
//
itemSequence: YSAYIRRCACLASSDESPGSKCSP [A11L]
endpointName: protein stability index
observedMeasurement: 1.74
//
itemSequence: YSAYIRRGACAASSDESPGSKCSP [C8G]
endpointName: protein stability index
observedMeasurement: 2.87
//
itemSequence: YSAYIRRCACAASSDESSGSKCSP [P18S]
endpointName: protein stability index
observedMeasurement: 2.37
//
itemSequence: YDAYIRRCACAASSDESPGSKCSP [S2D]
endpointName: protein stability index
observedMeasurement: 2.6
//
itemSequence: YSAYIRRCACAASSDESEGSKCSP [P18E]
endpointName: protein stability index
observedMeasurement: 2.36
//
itemSequence: YSAYIRRCACAASSDESPGRKCSP [S20R]
endpointName: protein stability index
observedMeasurement: 1.65
//
itemSequence: YSAYIRRCACAASSDEPPGSKCSP [S17P]
endpointName: protein stability index
observedMeasurement: 2.44
//
itemSequence: YSAYIRRCACAWSSDESPGSKCSP [A12W]
endpointName: protein stability index
observedMeasurement: 2.08
//
itemSequence: YSAYIRRCACAASSDESPGSKLSP [C22L]
endpointName: protein stability index
observedMeasurement: 1.78
//
itemSequence: YSAYQRRCACAASSDESPGSKCSP [I5Q]
endpointName: protein stability index
observedMeasurement: 2.09
//
itemSequence: YSAYIRRCACAASRDESPGSKCSP [S14R]
endpointName: protein stability index
observedMeasurement: 2.03
//
itemSequence: YSAYIRRCACAASSDESPGSPCSP [K21P]
endpointName: protein stability index
observedMeasurement: 2.93
//
itemSequence: YSAYIRPCACAASSDESPGSKCSP [R7P]
endpointName: protein stability index
observedMeasurement: 3.01
//
itemSequence: YSAYIRRCACAASSFESPGSKCSP [D15F]
endpointName: protein stability index
observedMeasurement: 2.34
//
itemSequence: YSKYIRRCACAASSDESPGSKCSP [A3K]
endpointName: protein stability index
observedMeasurement: 2.44
//
itemSequence: YSAYIHRCACAASSDESPGSKCSP [R6H]
endpointName: protein stability index
observedMeasurement: 1.82
//
itemSequence: YSAYIRRCACAASSDESPGSKCWP [S23W]
endpointName: protein stability index
observedMeasurement: 2.53
//
itemSequence: YSAYIRRCQCAASSDESPGSKCSP [A9Q]
endpointName: protein stability index
observedMeasurement: 2.25
//
itemSequence: YSAYIRRCACAASSDESPGSKCSK [P24K]
endpointName: protein stability index
observedMeasurement: 2.03
//
itemSequence: YSAYIRRCACAASSDESPGSKCSE [P24E]
endpointName: protein stability index
observedMeasurement: 2.34
//
itemSequence: YSAYIRRCACAASSDESPGSRCSP [K21R]
endpointName: protein stability index
observedMeasurement: 1.56
//
itemSequence: YSAYIRRCACAASSDESPGSKCIP [S23I]
endpointName: protein stability index
observedMeasurement: 1.4
//
itemSequence: YSAYIDRCACAASSDESPGSKCSP [R6D]
endpointName: protein stability index
observedMeasurement: 3.62
//
itemSequence: YSGYIRRCACAASSDESPGSKCSP [A3G]
endpointName: protein stability index
observedMeasurement: 2
//
itemSequence: YSAYIRRCACAGSSDESPGSKCSP [A12G]
endpointName: protein stability index
observedMeasurement: 2.46
//
itemSequence: YSAYIRRCACAASSDESPGTKCSP [S20T]
endpointName: protein stability index
observedMeasurement: 2.14
//
itemSequence: YSAYIRRCACATSSDESPGSKCSP [A12T]
endpointName: protein stability index
observedMeasurement: 1.94
//
itemSequence: YSAYIRRCACAASSDSSPGSKCSP [E16S]
endpointName: protein stability index
observedMeasurement: 1.94
//
itemSequence: YSAYIRRCACAASEDESPGSKCSP [S14E]
endpointName: protein stability index
observedMeasurement: 2.65
//
itemSequence: YSAYIRRRACAASSDESPGSKCSP [C8R]
endpointName: protein stability index
observedMeasurement: 2.99
//
itemSequence: YSAYHRRCACAASSDESPGSKCSP [I5H]
endpointName: protein stability index
observedMeasurement: 2.82
//
itemSequence: YSAYIRRCACAASSDESPQSKCSP [G19Q]
endpointName: protein stability index
observedMeasurement: 2
//
itemSequence: YSAYIRRCACAAASDESPGSKCSP [S13A]
endpointName: protein stability index
observedMeasurement: 2.07
//
itemSequence: YYAYIRRCACAASSDESPGSKCSP [S2Y]
endpointName: protein stability index
observedMeasurement: 1.92
//
itemSequence: YSAYIRRCACAASSDESPGAKCSP [S20A]
endpointName: protein stability index
observedMeasurement: 2.13
//
itemSequence: YSAYMRRCACAASSDESPGSKCSP [I5M]
endpointName: protein stability index
observedMeasurement: 2.29
//
itemSequence: YSAYIRRCACACSSDESPGSKCSP [A12C]
endpointName: protein stability index
observedMeasurement: 1.94
//
itemSequence: YSAWIRRCACAASSDESPGSKCSP [Y4W]
endpointName: protein stability index
observedMeasurement: 3.57
//
itemSequence: YSAYIRRCAFAASSDESPGSKCSP [C10F]
endpointName: protein stability index
observedMeasurement: 2.14
//
itemSequence: YSAYIRMCACAASSDESPGSKCSP [R7M]
endpointName: protein stability index
observedMeasurement: 2.14
//
itemSequence: YSAYIRRCACAASSDESPGVKCSP [S20V]
endpointName: protein stability index
observedMeasurement: 1.79
//
itemSequence: YSAYIRRCACYASSDESPGSKCSP [A11Y]
endpointName: protein stability index
observedMeasurement: 2.36
//
itemSequence: YSAYIRRCACAANSDESPGSKCSP [S13N]
endpointName: protein stability index
observedMeasurement: 1.87
//
itemSequence: YSMYIRRCACAASSDESPGSKCSP [A3M]
endpointName: protein stability index
observedMeasurement: 2.15
//
itemSequence: NSAYIRRCACAASSDESPGSKCSP [Y1N]
endpointName: protein stability index
observedMeasurement: 2.96
//
itemSequence: YSAYIRRCACAASSQESPGSKCSP [D15Q]
endpointName: protein stability index
observedMeasurement: 2.02
//
itemSequence: YSAYIRRCACAASSVESPGSKCSP [D15V]
endpointName: protein stability index
observedMeasurement: 1.51
//
itemSequence: HSAYIRRCACAASSDESPGSKCSP [Y1H]
endpointName: protein stability index
observedMeasurement: 2.65
//
itemSequence: YSAYIRRCACAASSDYSPGSKCSP [E16Y]
endpointName: protein stability index
observedMeasurement: 2.36
//
itemSequence: YSAYIRRFACAASSDESPGSKCSP [C8F]
endpointName: protein stability index
observedMeasurement: 2
//
itemSequence: YSAYIRRCACAASSDESPGSNCSP [K21N]
endpointName: protein stability index
observedMeasurement: 2.11
//
itemSequence: YSAYIRRCACAASSLESPGSKCSP [D15L]
endpointName: protein stability index
observedMeasurement: 1.61
//
itemSequence: YSAYIRRCACAASSDGSPGSKCSP [E16G]
endpointName: protein stability index
observedMeasurement: 1.8
//
itemSequence: YSAYIRRCACAASSDESHGSKCSP [P18H]
endpointName: protein stability index
observedMeasurement: 2.21
//
itemSequence: YSAYIRRCACAASSDDSPGSKCSP [E16D]
endpointName: protein stability index
observedMeasurement: 2.06
//
itemSequence: YSAYIRRCACAASSDESAGSKCSP [P18A]
endpointName: protein stability index
observedMeasurement: 1.83
//
itemSequence: YSAYIRRCAQAASSDESPGSKCSP [C10Q]
endpointName: protein stability index
observedMeasurement: 2.69
//
itemSequence: YSAYIRRCACAASHDESPGSKCSP [S14H]
endpointName: protein stability index
observedMeasurement: 2.74
//
itemSequence: YSAYIRRCACAASSDESLGSKCSP [P18L]
endpointName: protein stability index
observedMeasurement: 2.22
//
itemSequence: YSAYIRRDACAASSDESPGSKCSP [C8D]
endpointName: protein stability index
observedMeasurement: 3.89
//
itemSequence: DSAYIRRCACAASSDESPGSKCSP [Y1D]
endpointName: protein stability index
observedMeasurement: 3.44
//
itemSequence: YSAYIRRCACADSSDESPGSKCSP [A12D]
endpointName: protein stability index
observedMeasurement: 2.49
//
itemSequence: YSAYIRRCACAASCDESPGSKCSP [S14C]
endpointName: protein stability index
observedMeasurement: 2.18
//
itemSequence: YSAYIRRCACAQSSDESPGSKCSP [A12Q]
endpointName: protein stability index
observedMeasurement: 2.12
//
itemSequence: YSAYIRRCACAASSDESPTSKCSP [G19T]
endpointName: protein stability index
observedMeasurement: 1.91
//
itemSequence: YSAYIRRCICAASSDESPGSKCSP [A9I]
endpointName: protein stability index
observedMeasurement: 2.38
//
itemSequence: YSAYIRRCACAADSDESPGSKCSP [S13D]
endpointName: protein stability index
observedMeasurement: 2.62
//
itemSequence: YSAYIRRCASAASSDESPGSKCSP [C10S]
endpointName: protein stability index
observedMeasurement: 2.92
//
itemSequence: YSAYIRRCACAASSDESPPSKCSP [G19P]
endpointName: protein stability index
observedMeasurement: 2.31
//
itemSequence: YSAYIRRCACAASSDENPGSKCSP [S17N]
endpointName: protein stability index
observedMeasurement: 2.22
//
itemSequence: YSAYIRRCACAASSDESPGEKCSP [S20E]
endpointName: protein stability index
observedMeasurement: 2.15
//
itemSequence: YSAYIRRCACAASSPESPGSKCSP [D15P]
endpointName: protein stability index
observedMeasurement: 1.99
//
itemSequence: YSAFIRRCACAASSDESPGSKCSP [Y4F]
endpointName: protein stability index
observedMeasurement: 1.92
//
itemSequence: YSAYIRRCACAATSDESPGSKCSP [S13T]
endpointName: protein stability index
observedMeasurement: 2.1
//
itemSequence: YSAYIWRCACAASSDESPGSKCSP [R6W]
endpointName: protein stability index
observedMeasurement: 3.52
//
itemSequence: YSAYIRYCACAASSDESPGSKCSP [R7Y]
endpointName: protein stability index
observedMeasurement: 2.06
//
itemSequence: YSAYNRRCACAASSDESPGSKCSP [I5N]
endpointName: protein stability index
observedMeasurement: 3.13
//
itemSequence: YSAYVRRCACAASSDESPGSKCSP [I5V]
endpointName: protein stability index
observedMeasurement: 1.85
//
itemSequence: YSAYIRRCACAASSDESPGSKCSW [P24W]
endpointName: protein stability index
observedMeasurement: 1.91
//
itemSequence: YSNYIRRCACAASSDESPGSKCSP [A3N]
endpointName: protein stability index
observedMeasurement: 1.54
//
itemSequence: YSAYIRRCACAAYSDESPGSKCSP [S13Y]
endpointName: protein stability index
observedMeasurement: 2.13
//
itemSequence: YSAYIRRCACAASSDESPGQKCSP [S20Q]
endpointName: protein stability index
observedMeasurement: 2.21
//
itemSequence: ISAYIRRCACAASSDESPGSKCSP [Y1I]
endpointName: protein stability index
observedMeasurement: 1.72
//
itemSequence: YSAYIRRCACAASNDESPGSKCSP [S14N]
endpointName: protein stability index
observedMeasurement: 2.65
//
itemSequence: YSAYIRRCACAASSDVSPGSKCSP [E16V]
endpointName: protein stability index
observedMeasurement: 1.81
//
itemSequence: YSAYIRRCACAASSDESPESKCSP [G19E]
endpointName: protein stability index
observedMeasurement: 2.31
//
itemSequence: YSAYIRRCACAASSDESQGSKCSP [P18Q]
endpointName: protein stability index
observedMeasurement: 1.96
//
itemSequence: YSAYIYRCACAASSDESPGSKCSP [R6Y]
endpointName: protein stability index
observedMeasurement: 2.25
